compounds and their reported pKi
- target under test: GST-Bcl-XL (Homo sapiens)
- Sequence (Q07817 whole entry): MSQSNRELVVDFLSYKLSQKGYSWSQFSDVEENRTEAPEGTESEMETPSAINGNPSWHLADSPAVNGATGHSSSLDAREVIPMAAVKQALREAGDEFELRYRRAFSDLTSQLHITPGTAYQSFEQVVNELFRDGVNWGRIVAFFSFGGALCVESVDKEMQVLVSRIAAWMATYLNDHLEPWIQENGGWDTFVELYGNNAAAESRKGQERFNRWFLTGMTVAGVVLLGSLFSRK
- protocol summary: TR-FRET binding assay, GST-Bcl-XL with F-Bak peptide probe
- setup conditions: TR-FRET Binding Affinity, GST-Bcl-XL, F-Bak peptide probe
- Method: Tb-anti-GST antibody was purchased from Invitrogen (Catalog No. PV4216). […] The samples were then mixed on a shaker for 1 minute and incubated for an additional 3 hours at room temperature. […] Fluorescence was measured on the ENVISION plate reader (Perkin Elmer) using a 340/35 nm excitation filter and 520/525 (F-Bak peptide) and 495/510 nm (Tb-labeled […] antibody) emission filters. […]
pKi: −log10 of the molar value.
quantity kind: pKi

INSERT INTO measurements (compound, quantity_kind, limit_operator, value_reported) VALUES
  ('O=C(NS(=O)(=O)c1ccc(NCC2CCOCC2)c([N+](=O)[O-])c1)c1ccc(N2CCN(CC3=C(c4ccc(Cl)cc4)CCC(N4CCCC4)C3)CC2)cc1Oc1ccc2[nH]ccc2c1 (centres unmarked) [Example 272]', 'pKi', '<', 6.18),
  ('CC1(C)CCC(CN2CCN(c3ccc(C(=O)NS(=O)(=O)c4cnc(OCC5CCOCC5)c(C#N)c4)c(Oc4ccc5[nH]ccc5c4)c3)CC2)=C(c2ccc(Cl)cc2)C1 [Example 333]', 'pKi', '<', 6.18),
  ('CN(C)CCCNc1ccc(S(=O)(=O)NC(=O)c2ccc(N3CCN(CC4=C(c5ccc(Cl)cc5)CC(C)(C)CC4)CC3)cc2Oc2ccc3[nH]ccc3c2)cc1C(F)(F)F [Example 171]', 'pKi', '=', 7.28),
  ('CN(C)CCCOc1ccc(-c2ccc(Cl)cc2)c(CN2CCN(c3ccc(C(=O)NS(=O)(=O)c4ccc(NCC5CCOCC5)c(S(=O)(=O)C(F)(F)F)c4)c(Oc4ccccc4)c3)CC2)c1 [Example 119]', 'pKi', '=', 6.64),
  ('CN1CCC(CNc2ccc(S(=O)(=O)NC(=O)c3ccc(N4CCN(Cc5ccccc5-c5ccc(Cl)cc5)CC4)cc3Oc3ccccc3)cc2[N+](=O)[O-])CC1 [Example 88]', 'pKi', '=', 8.33);
